FYI, the data here is from patent US5840684A.

tested on: Staphylococcus aureus 447; test: broth micro-dilution MIC; format: cell-based

MOLECULE | UNIT_SYMBOL | MIC
CNC(CC(C)C)C(=O)NC1C(=O)NC(CC(N)=O)C(=O)NC2C(=O)NC3C(=O)NC(C(=O)NC(C(=O)O)c4cc(O)cc(O)c4-c4cc3ccc4O)C(OC3CC(C)(N)C(O)C(C)O3)c3ccc(c(Cl)c3)Oc3cc2cc(c3OC2OC(CO)C(O)C(O)C2OC2CC(C)(NCc3ccc(C)c(C)c3)C(O)C(C)O2)Oc2ccc(cc2Cl)C1O (stereo not drawn) | µg/mL | 0.5
CNC(CC(C)C)C(=O)NC1C(=O)NC(CC(N)=O)C(=O)NC2C(=O)NC3C(=O)NC(C(=O)NC(C(=O)O)c4cc(O)cc(O)c4-c4cc3ccc4O)C(OC3CC(C)(N)C(O)C(C)O3)c3ccc(c(Cl)c3)Oc3cc2cc(c3OC2OC(CO)C(O)C(O)C2OC2CC(C)(NCCc3ccc(Oc4ccccc4)cc3)C(O)C(C)O2)Oc2ccc(cc2Cl)C1O (stereo not drawn) | µg/mL | 1
CNC(CC(C)C)C(=O)NC1C(=O)NC(CC(N)=O)C(=O)NC2C(=O)NC3C(=O)NC(C(=O)NC(C(=O)O)c4cc(O)cc(O)c4-c4cc3ccc4O)C(OC3CC(C)(N)C(O)C(C)O3)c3ccc(c(Cl)c3)Oc3cc2cc(c3OC2OC(CO)C(O)C(O)C2OC2CC(C)(NCc3ccc(OCC(O)CO)cc3)C(O)C(C)O2)Oc2ccc(cc2Cl)C1O (stereo not drawn) | µg/mL | 4

###

system: vancomycin-susceptible enterococci; test: broth micro-dilution, mean geometric MIC; type: cell-based, Enterococcus faecium and Enterococcus faecalis; details: enterococci, 24-hour incubation
Entries and their mean geometric MIC, Vancomycin Sensitive Strains
MEASUREMENT_NAME: mean geometric MIC, Vancomycin Sensitive Strains (µg/mL)

COMPOUND | MEASURED_RESULT
CCCCCc1ccc(-c2ccc(CNC3(C)CC(OC4C(Oc5c6cc7cc5Oc5ccc(cc5Cl)C(OC5CC(C)(N)C(O)C(C)O5)C5NC(=O)C(NC(=O)C7NC(=O)C(CC(N)=O)NC(=O)C(NC(=O)C(CC(C)C)NC)C(O)c7ccc(c(Cl)c7)O6)c6ccc(O)c(c6)-c6c(O)cc(O)cc6C(C(=O)O)NC5=O)OC(CO)C(O)C4O)OC(C)C3O)cc2)cc1 (stereo not drawn) | 1.5
CNC(CC(C)C)C(=O)NC1C(=O)NC(CC(N)=O)C(=O)NC2C(=O)NC3C(=O)NC(C(=O)NC(C(=O)O)c4cc(O)cc(O)c4-c4cc3ccc4O)C(OC3CC(C)(N)C(O)C(C)O3)c3ccc(c(Cl)c3)Oc3cc2cc(c3OC2OC(CO)C(O)C(O)C2OC2CC(C)(NCc3ccc4c(c3)OCO4)C(O)C(C)O2)Oc2ccc(cc2Cl)C1O (stereo not drawn) | 0.50
CNC(CC(C)C)C(=O)NC1C(=O)NC(CC(N)=O)C(=O)NC2C(=O)NC3C(=O)NC(C(=O)NC(C(=O)O)c4cc(O)cc(O)c4-c4cc3ccc4O)C(OC3CC(C)(N)C(O)C(C)O3)c3ccc(c(Cl)c3)Oc3cc2cc(c3OC2OC(CO)C(O)C(O)C2OC2CC(C)(NCc3ccc4ccccc4c3)C(O)C(C)O2)Oc2ccc(cc2Cl)C1O (stereo not drawn) | 0.0061

###

tested on: vancomycin-susceptible enterococci; test: broth micro-dilution, mean geometric MIC; assay type: cell-based, Enterococcus faecium and Enterococcus faecalis; conditions: enterococci, 24-hour incubation
MEASUREMENT_NAME: mean geometric MIC, Vancomycin Sensitive Strains (µg/mL)

COMPOUND | UNIT_SYMBOL | MEASURED_RESULT
CNC(CC(C)C)C(=O)NC1C(=O)NC(CC(N)=O)C(=O)NC2C(=O)NC3C(=O)NC(C(=O)NC(C(=O)O)c4cc(O)cc(O)c4-c4cc3ccc4O)C(OC3CC(C)(N)C(O)C(C)O3)c3ccc(c(Cl)c3)Oc3cc2cc(c3OC2OC(CO)C(O)C(O)C2OC2CC(C)(NCc3c4c(cc5ccccc35)CCCC4)C(O)C(C)O2)Oc2ccc(cc2Cl)C1O (stereo not drawn) | µg/mL | 0.17
CNC(CC(C)C)C(=O)NC1C(=O)NC(CC(N)=O)C(=O)NC2C(=O)NC3C(=O)NC(C(=O)NC(C(=O)O)c4cc(O)cc(O)c4-c4cc3ccc4O)C(OC3CC(C)(N)C(O)C(C)O3)c3ccc(c(Cl)c3)Oc3cc2cc(c3OC2OC(CO)C(O)C(O)C2OC2CC(C)(NCc3ccc(C(O)c4ccccc4)cc3)C(O)C(C)O2)Oc2ccc(cc2Cl)C1O (stereo not drawn) | µg/mL | 0.22
CNC(CC(C)C)C(=O)NC1C(=O)NC(CC(N)=O)C(=O)NC2C(=O)NC3C(=O)NC(C(=O)NC(C(=O)O)c4cc(O)cc(O)c4-c4cc3ccc4O)C(OC3CC(C)(NCc4ccc(OCCOC(C)(C)C)cc4)C(O)C(C)O3)c3ccc(c(Cl)c3)Oc3cc2cc(c3OC2OC(CO)C(O)C(O)C2OC2CC(C)(NCc3ccc(OCCOC(C)(C)C)cc3)C(O)C(C)O2)Oc2ccc(cc2Cl)C1O (stereo not drawn) | µg/mL | 1.7
